# target_desc: Histone deacetylase 4 (Homo sapiens)
# Sequence (P56524 whole entry, the tested form may be a part): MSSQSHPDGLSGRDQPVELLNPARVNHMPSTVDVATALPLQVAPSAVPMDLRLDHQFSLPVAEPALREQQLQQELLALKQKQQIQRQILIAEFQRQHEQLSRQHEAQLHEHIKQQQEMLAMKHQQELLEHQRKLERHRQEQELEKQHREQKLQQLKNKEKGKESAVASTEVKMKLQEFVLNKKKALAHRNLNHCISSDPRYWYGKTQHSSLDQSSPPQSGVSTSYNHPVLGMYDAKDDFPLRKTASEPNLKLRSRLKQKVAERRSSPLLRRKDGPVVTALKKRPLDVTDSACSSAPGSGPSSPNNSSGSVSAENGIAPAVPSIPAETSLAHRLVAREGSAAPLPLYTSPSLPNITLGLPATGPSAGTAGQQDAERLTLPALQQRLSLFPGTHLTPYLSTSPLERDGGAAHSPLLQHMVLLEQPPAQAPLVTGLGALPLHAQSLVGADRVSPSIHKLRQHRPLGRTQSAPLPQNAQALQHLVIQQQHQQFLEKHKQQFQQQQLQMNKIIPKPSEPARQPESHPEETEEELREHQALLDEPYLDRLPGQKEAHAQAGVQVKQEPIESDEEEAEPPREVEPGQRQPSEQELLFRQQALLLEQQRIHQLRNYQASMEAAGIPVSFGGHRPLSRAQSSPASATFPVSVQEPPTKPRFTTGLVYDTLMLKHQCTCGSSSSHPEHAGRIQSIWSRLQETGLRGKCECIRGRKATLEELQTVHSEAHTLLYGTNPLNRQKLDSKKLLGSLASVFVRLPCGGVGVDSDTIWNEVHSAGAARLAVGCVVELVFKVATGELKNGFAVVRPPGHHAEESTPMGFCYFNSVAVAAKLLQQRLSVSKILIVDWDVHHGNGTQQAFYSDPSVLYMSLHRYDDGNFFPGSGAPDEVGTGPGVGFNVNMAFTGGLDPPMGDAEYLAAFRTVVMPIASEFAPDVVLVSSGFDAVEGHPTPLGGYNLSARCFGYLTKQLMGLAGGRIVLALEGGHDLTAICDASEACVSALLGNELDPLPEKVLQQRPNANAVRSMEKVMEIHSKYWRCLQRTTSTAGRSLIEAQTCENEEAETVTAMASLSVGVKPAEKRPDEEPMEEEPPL
# assay_procedure: Inhibition of human recombinant HDAC4 expressed in baculovirus using fluorogenic peptide p53 residues 379-382 (RHKK(Ac)AMC) as substrate by Fluorescence analysis
pIC50: −log10 of the molar value.
attribute_measured: pIC50

Find the recorded pIC50 belonging to "Nc1nc(Nc2ccc(F)c(Cl)c2)c2ncn(Cc3ccc(C(=O)Nc4ccccc4N)cc3)c2n1" and report it. < 5.00

---

# target_desc: Histone deacetylase 7 (Homo sapiens)
# Sequence (Q8WUI4 whole entry, the tested form may be a part): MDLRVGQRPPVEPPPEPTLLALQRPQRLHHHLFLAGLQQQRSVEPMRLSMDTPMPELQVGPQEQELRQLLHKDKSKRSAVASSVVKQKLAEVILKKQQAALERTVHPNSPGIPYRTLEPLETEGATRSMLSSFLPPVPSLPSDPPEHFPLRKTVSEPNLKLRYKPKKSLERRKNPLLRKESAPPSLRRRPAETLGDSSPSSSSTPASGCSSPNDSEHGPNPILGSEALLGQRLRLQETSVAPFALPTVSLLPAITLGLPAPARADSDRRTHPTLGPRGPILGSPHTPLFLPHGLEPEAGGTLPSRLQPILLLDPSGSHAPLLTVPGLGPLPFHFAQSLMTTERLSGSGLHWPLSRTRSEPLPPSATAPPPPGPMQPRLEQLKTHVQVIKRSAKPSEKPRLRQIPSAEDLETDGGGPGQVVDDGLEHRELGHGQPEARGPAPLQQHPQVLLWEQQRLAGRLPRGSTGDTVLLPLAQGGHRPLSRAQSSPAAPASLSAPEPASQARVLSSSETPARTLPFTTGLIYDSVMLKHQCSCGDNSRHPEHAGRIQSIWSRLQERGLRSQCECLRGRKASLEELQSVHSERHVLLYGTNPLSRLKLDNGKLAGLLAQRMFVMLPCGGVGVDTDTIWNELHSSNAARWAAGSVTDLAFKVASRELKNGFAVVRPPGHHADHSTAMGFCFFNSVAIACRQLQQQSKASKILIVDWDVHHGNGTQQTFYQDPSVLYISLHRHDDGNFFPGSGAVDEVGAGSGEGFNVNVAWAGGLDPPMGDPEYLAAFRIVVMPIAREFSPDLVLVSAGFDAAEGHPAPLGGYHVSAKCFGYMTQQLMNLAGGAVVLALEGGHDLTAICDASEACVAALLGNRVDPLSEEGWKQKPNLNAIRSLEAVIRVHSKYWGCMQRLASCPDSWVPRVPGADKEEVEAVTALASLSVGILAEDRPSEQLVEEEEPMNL
# assay_procedure: Inhibition of human recombinant HDAC7 expressed in baculovirus using fluorogenic peptide p53 residues 379-382 (RHKK(Ac)AMC) as substrate by Fluorescence analysis
pIC50: −log10 of the molar value.
attribute_measured: pIC50

// lookup pIC50 | system=Histone deacetylase 7 (Homo sapiens) | key= "Nc1nc(Nc2ccc(F)c(Cl)c2)c2ncn(Cc3ccc(C(=O)Nc4ccccc4N)cc3)c2n1" < 5.00

Measured values drawn from ChEMBL document CHEMBL4765296 for this set.
